- experimental target: Gp6 (Mycobacterium phage L5, UniProt Q05278, L15P)
- Construct: pET-30a(+) vector-encoded N-terminal leader (additional residues up to the EcoRI site) (N)
- Sequence (Q05278 other isoform, or with tags, fused parts or gaps L15P): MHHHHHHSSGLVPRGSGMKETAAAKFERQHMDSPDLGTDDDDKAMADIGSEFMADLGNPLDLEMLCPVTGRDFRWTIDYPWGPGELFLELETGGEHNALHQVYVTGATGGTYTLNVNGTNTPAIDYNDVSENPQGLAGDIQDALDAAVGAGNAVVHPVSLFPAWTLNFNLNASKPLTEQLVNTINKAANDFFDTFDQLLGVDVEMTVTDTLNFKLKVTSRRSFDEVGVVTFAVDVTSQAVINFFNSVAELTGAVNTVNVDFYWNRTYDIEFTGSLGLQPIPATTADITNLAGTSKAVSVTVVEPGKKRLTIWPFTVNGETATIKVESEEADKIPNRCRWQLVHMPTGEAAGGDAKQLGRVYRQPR
- experiment: Direct ESI-MS assay of carbohydrate binding
endpoint label: Kd (µM)
Just the number please, in µM, no unit attached.

Solved cases below.
O=C(NCCCCCCCCO[C@H]1O[C@H](CO[C@H]2O[C@H](CO[C@H]3O[C@H](CO)[C@@H](O)[C@@H]3O[C@@H]3O[C@H](CO[C@H]4O[C@H](CO)[C@@H](O)[C@H](O)[C@@H]4O)[C@@H](O)[C@@H]3O)[C@@H](O)[C@@H]2O)[C@@H](O)[C@@H]1O)C(F)(F)F: 256
O=C(NCCCCCCCCO[C@H]1O[C@H](CO[C@H]2O[C@H](CO[C@H]3O[C@H](CO)[C@@H](O)[C@@H]3O)[C@@H](O[C@H]3O[C@H](CO)[C@@H](O)[C@@H]3O)[C@@H]2O)[C@@H](O)[C@@H]1O)C(F)(F)F: 417
COc1ccc(O[C@@H]2O[C@@H](C)[C@H](O)[C@@H](O[C@@H]3O[C@@H](C)[C@H](O)[C@@H](O[C@@H]4O[C@@H](C)[C@@H](OC)[C@@H](O)[C@@H]4OC)[C@H]3O)[C@H]2O)cc1: 333

# ---- query compound ----
Query :: Would you kindly share the measured Kd for `O=C(NCCCCCCCCO[C@H]1O[C@H](CO[C@H]2O[C@H](CO[C@H]3O[C@H](CO[C@H]4O[C@H](CO)[C@@H](O)[C@@H]4O)[C@@H](O)[C@@H]3O)[C@@H](O)[C@@H]2O)[C@@H](O)[C@@H]1O)C(F)(F)F` ?
Result :: 145

These measurements were taken from patent US9885713B2.
